# TARGET UNDER TEST: T1, human GLP-1 receptor (human, UniProt P43220 24-463)
# T1 construct: whole, on cells
# ASSAY REMARKS: SPA competition, displacement of 125I-GLP-1(7-36)NH2 from BHK membranes with human GLP-1 receptor; low HSA (max. 0.001%)
Non-standard residues stand in square brackets, D forms with d. No end group written: not given here. Aib = CC(C)(N)C(=O)O
// NB: equality with 0.7 nM counts as 0; only IC50 strictly below is 1

As a guide, the following entries are already answered.
- BINDER: "H[Aib]EGTFTSDVSSYLEEQAAREFIAWLVRKRG (not fully specified (residue 29), also called Chem. 37; N{Epsilon-35}-acylated [Aib8,Glu22,Arg26,Arg34,Lys35]-GLP-1-(7-37)-peptide) [GLP-1 derivative of Example 17]"
  CATEGORY: 1
- BINDER: "HXEGTFTSDVSSYLEEQAAREFIAWLVRGRK (Aib at position 8 (GLP-1 numbering); epsilon-amino of Lys37 acylated with branched side chain: Pre-linker 8xAdo; Branched linker eps-Lys(Bis); two Post-linkers Trx-gGlu, each carrying a C20 diacid Protractor, also called Chem. 33; N{Epsilon-37}-acylated [Aib8,Glu22,Arg26,Arg34,Lys37]-GLP-1-(7-37)-peptide) [GLP-1 derivative of Example 13]"
  CATEGORY: 1
- BINDER: "HXEGTFTSDVSSYLEEQAAREFIAWLVRGRK (not fully specified; Aib at position 8 (GLP-1 numbering); epsilon-amino of Lys37 acylated with branched side chain: Pre-linker 2xAdo; Branched linker eps-Lys(Bis); two Post-linkers Trx-gGlu-2xAdo, each carrying a C20 diacid Protractor, also called Chem. 22; N{Epsilon-37}-acylated [Aib8,Glu22,Arg26,Arg34,Lys37]-GLP-1-(7-37)-peptide) [GLP-1 derivative of Example 2]"
  CATEGORY: 1

Turning to the following binder.
In the record for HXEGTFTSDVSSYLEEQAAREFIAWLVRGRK (Aib at position 8 (GLP-1 numbering); epsilon-amino of Lys37 acylated with branched side chain: Pre-linker 3xAdo; Branched linker eps-Lys(Bis); two Post-linkers Trx-gGlu-3xAdo, each carrying a C20 diacid Protractor (the printed name gives (4R) for the gGlu of one arm and (4S) for the other), also called Chem. 42; N{Epsilon-37}-acylated [Aib8,Glu22,Arg26,Arg34,Lys37]-GLP-1-(7-37)-peptide) [GLP-1 derivative of Example 22] , is IC50 less than 0.7 nM?
0
